# assay-target: iNOS (Homo sapiens, UniProt P35228)
# Sequence (P35228 whole entry): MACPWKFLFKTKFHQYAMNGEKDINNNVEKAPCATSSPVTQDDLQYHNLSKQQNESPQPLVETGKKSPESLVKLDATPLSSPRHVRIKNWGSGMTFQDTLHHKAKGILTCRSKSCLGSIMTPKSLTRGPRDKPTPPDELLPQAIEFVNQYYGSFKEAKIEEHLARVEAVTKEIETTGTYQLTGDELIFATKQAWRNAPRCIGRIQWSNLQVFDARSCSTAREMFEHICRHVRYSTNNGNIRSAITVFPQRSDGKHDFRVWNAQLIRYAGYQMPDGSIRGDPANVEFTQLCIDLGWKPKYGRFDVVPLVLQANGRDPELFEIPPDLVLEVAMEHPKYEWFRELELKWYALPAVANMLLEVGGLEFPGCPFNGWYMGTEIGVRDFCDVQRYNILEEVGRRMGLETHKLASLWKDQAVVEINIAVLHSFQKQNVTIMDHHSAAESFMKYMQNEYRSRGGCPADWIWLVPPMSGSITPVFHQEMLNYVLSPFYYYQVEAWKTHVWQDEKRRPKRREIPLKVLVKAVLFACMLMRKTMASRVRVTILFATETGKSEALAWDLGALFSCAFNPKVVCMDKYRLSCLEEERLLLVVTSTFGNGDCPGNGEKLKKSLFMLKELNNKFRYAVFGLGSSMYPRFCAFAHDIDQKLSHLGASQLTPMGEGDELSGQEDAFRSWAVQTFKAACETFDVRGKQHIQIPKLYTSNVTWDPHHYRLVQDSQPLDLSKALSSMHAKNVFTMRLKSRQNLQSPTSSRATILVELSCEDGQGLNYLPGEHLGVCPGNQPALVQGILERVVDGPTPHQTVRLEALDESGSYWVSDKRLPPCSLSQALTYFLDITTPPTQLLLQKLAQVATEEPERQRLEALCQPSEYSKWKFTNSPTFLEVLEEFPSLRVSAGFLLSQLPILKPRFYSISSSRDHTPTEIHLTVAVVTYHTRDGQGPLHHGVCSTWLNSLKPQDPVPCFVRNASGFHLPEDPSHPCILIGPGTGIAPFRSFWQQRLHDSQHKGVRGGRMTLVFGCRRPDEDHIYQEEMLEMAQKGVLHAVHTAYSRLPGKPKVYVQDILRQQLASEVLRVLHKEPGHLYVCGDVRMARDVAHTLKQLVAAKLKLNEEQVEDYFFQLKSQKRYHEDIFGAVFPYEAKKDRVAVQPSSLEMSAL
# method-description: iNOS activity, nitric oxide synthase screening kit (IC50)
# Format: biochemical
# test-context: iNOS; read-out: IC50 of tested compounds
Threshold 200 nM. IC50 below it: True. IC50 at it or above: False.

- molecule: "C/C=C/c1cc(C)cc(N)n1"
  discrete-label: "False"
- molecule: "Cc1cc(N)nc(CC(C)CCF)c1 (centres unmarked)"
  discrete-label: "False"
- molecule: "Cc1cc(N)nc(CCCF)c1"
  discrete-label: "True"
- molecule: "Cc1cc(N)nc(CC(C)O)c1 (centres unmarked)"
  discrete-label: "False"
- molecule: "Cc1cc(N)nc(CC(C)F)c1 (centres unmarked)"
  discrete-label: "True"
- molecule: "Cc1cc(N)nc(CCCCF)c1"
  discrete-label: "True"
- molecule: "Cc1cc(N)nc(CC(C)C)c1"
  discrete-label: "True"
- molecule: "CC(C)=Cc1cc(C)cc(N)n1"
  discrete-label: "False"
